biological target: furin, P09958; experiment: furin cleavage Z-score vs untreated control; higher = more cleavage, active = 3.5 or more, inactive = 1 or less, 8 variable residues between constant flanks; details: 30 min;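 also: purified furin at 1:10 enzyme:substrate in 50 mM HEPES pH 7.5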
Sequence (P09958 whole entry): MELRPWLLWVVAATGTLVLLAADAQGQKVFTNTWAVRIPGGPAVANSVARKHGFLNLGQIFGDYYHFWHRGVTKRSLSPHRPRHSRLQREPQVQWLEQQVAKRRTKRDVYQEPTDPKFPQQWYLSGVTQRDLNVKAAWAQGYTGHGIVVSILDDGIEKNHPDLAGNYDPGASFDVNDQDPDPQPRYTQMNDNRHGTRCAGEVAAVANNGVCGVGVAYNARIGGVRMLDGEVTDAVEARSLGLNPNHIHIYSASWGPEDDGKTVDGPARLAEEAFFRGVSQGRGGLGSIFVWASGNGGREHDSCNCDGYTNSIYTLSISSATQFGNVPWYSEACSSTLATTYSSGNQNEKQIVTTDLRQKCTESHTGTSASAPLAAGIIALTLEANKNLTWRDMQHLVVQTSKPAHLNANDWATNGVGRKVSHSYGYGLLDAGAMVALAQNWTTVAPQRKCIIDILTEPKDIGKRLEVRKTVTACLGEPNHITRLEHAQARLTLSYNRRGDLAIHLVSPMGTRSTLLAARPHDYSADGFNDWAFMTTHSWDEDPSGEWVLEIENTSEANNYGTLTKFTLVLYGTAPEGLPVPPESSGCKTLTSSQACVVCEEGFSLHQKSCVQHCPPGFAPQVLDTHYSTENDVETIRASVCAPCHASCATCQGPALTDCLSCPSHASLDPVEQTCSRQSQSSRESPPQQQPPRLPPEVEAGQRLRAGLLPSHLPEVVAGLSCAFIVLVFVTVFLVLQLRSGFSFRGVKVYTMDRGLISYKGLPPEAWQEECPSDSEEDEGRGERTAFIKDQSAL
The other results are listed elsewhere or left out. How many sequences the whole screen found active is unknown.
Parameter Measured: furin cleavage Z-score
// print number alone

CASQPCSAHLAGNASASA [HC2502]; 0.0846
CAYINRKKKVAGNASASA [FS-633]; -0.973
CARPPRSIVTAGNASASA [FS-2439]; 6.76
CARTGRSREVAGNASASA [FS-3105]; 1.18
CARQKRIIGGAGNASASA [FS-2754]; 0.0214
CAPLLYRLGAAGNASASA [HC972]; 0.0559

Query: furin cleavage Z-score; subject: CACPNSSIVYAGNASASA [HC264]
Response: -0.406

Query: furin cleavage Z-score; subject: CARPPRSATAAGNASASA [FS-2058]
Response: 3.61

Query: furin cleavage Z-score; subject: CAAAPGAATAAGNASASA [HC1071]
Response: -1.91

Query: furin cleavage Z-score; subject: CATTALVMAQAGNASASA [HC325]
Response: -0.108

Query: furin cleavage Z-score; subject: CAPSGCPPDSAGNASASA [HC1347]
Response: -1.37

Query: furin cleavage Z-score; subject: CARQKREIDVAGNASASA [FS-3035]
Response: 11.5

Query: furin cleavage Z-score; subject: CARQKRAWITAGNASASA [FS-3202]
Response: 6.77

Query: furin cleavage Z-score; subject: CARPVRGIHTAGNASASA [FS-3030]
Response: 3.15

Query: furin cleavage Z-score; subject: CARQIRGLEEAGNASASA [FS-2443]
Response: 3.31

Query: furin cleavage Z-score; subject: CASREVPCHRAGNASASA [HC2437]
Response: 0.935

Query: furin cleavage Z-score; subject: CAKRRRGRKSAGNASASA [FS-679]
Response: 1.45

Query: furin cleavage Z-score; subject: CALAYGLRSKAGNASASA [TR9]
Response: -1.59

Query: furin cleavage Z-score; subject: CAAAVTSPLTAGNASASA [HC1058]
Response: -0.302

Query: furin cleavage Z-score; subject: CASRSLTPCTAGNASASA [HC719]
Response: 0.443

Query: furin cleavage Z-score; subject: CATTLCSGSWAGNASASA [HC1865]
Response: 0.486

Query: furin cleavage Z-score; subject: CAHYQDVLKEAGNASASA [HC1402]
Response: 0.655

Query: furin cleavage Z-score; subject: CARPQRLIDHAGNASASA [FS-3020]
Response: -0.235
